System: NCI-H322M lung
Test Summary: NCI-60 one-dose screen, 48 h (100 = growth as untreated, 0 = no growth, -100 = all killed)
Conditions: 10 µM unless noted
Method: Growth inhibition of the NCI-H322M human Non-Small Cell Lung tumor cell line is measured as a screen for anti-cancer activity. Cells are grown in 96 well plates and exposed to the test compound for 48 hours. Compounds are tested at a single concentration, which is 10^-5 M for most compounds. The reported endpoint is percent growth (GI% or GIPRCNT), where numbers from 0 - 100% represent growth inhibition, and numbers from -100% - 0 represent cell death. […]
About 83,000 compounds went through this panel and 20% of them were active in at least one assay; those are over-represented in the sample as a whole.
# label = criterion met if growth >= 90% else criterion not met

These solved cases illustrate the format of a correct answer.
[
  {
    "Compound": "CCCCSc1nc(Nc2ccc(C(C)=O)cc2)c(C#N)c(-c2ccc(OC)cc2)n1",
    "Classification": "criterion not met"
  },
  {
    "Compound": "CCN(CC)c1ccnc(CNCCSC(c2ccccc2)(c2ccccc2)c2ccc(C)cc2)c1",
    "Classification": "criterion not met"
  },
  {
    "Compound": "CC(=O)OCC1OC(OC2C(COC(C)=O)OC(n3cc(COc4ccc5ccc(=O)oc5c4)nn3)C(OC(C)=O)C2OC(C)=O)C(OC(C)=O)C(OC(C)=O)C1OC(C)=O (configuration not stated)",
    "Classification": "criterion met"
  },
  {
    "Compound": "CN(C)c1ccnc(CNCCSC2(c3ccc(C(F)(F)F)cc3)c3ccccc3C=Cc3ccccc32)c1",
    "Classification": "criterion not met"
  },
  {
    "Compound": "O=C1NC(=O)/C(=C/c2ccccc2OCc2cc3ccccc3nc2Cl)S1",
    "Classification": "criterion not met"
  },
  {
    "Compound": "COc1cc(/C=C/C(=O)c2ccc(C)cc2)ccc1Oc1nc(Nc2ccc(F)cc2)nc(N(C)C)n1",
    "Classification": "criterion not met"
  },
  {
    "Compound": "COc1cc(CNC(=O)/C=C/c2ccc3c(c2)OCO3)ccc1OCc1cn(-c2cccc(C(F)(F)F)c2)nn1",
    "Classification": "criterion not met"
  },
  {
    "Compound": "Cc1cc(C)n(-c2ccc3nnc(-c4ccccc4)n3n2)n1",
    "Classification": "criterion met"
  },
  {
    "Compound": "COc1ccc2c(c1)c(-c1cc3nc(-c4cn(C)c5ncccc45)cc(N)n3n1)cn2C",
    "Classification": "criterion not met"
  },
  {
    "Compound": "O=C1Nc2ccc([N+](=O)[O-])cc2C1=Nc1ccccc1",
    "Classification": "criterion met"
  }
]

[in] growth >= 90% for C#CCOc1cc(N(CC)CC)ccc1C(C(=O)NC(C)(C)C)N(C(=O)C1CCc2cc(F)ccc2O1)c1ccccc1Br (configuration not stated) ?
[out] criterion not met

[in] Follow-up entry: CC1(C)CC[C@]2(C(=O)O)CC[C@]3(C)C(=CCC4[C@@]5(C)C[C@@H](O)[C@@H]6OC(c7ccccc7Br)OC[C@@]6(C)C5CC[C@]43C)C2C1 (some centres not stated)
[out] criterion not met

[in] Follow-up entry: Cc1ccccc1[C@H]1C(C(=O)c2ccc(Cl)cc2)C2(N[C@@H]1c1ccccc1)C(=O)Nc1ccc(Cl)cc12 (some centres not stated)
[out] criterion not met

[in] Follow-up entry: `COc1ccc2[nH]cc(-c3nnc(N)nc3-c3cn(C)c4ncc(Br)cc34)c2c1`
[out] criterion not met

[in] Follow-up entry: `CC(=O)Nc1cccc(Nc2nc(N[C@H]3CCCc4ccccc43)c3ccccc3n2)c1`
[out] criterion met

* * *

System: SK-MEL-2 melanoma
Test Summary: NCI-60 one-dose screen, 48 h (100 = growth as untreated, 0 = no growth, -100 = all killed)
Conditions: 10 µM unless noted
Protocol: Growth inhibition of the SK-MEL-2 human tumor cell line is measured as a screen for anti-cancer activity. Cells are grown in 96 well plates and exposed to the test compound for 48 hours. Compounds are tested at a single concentration, which is 10^-5 M for most compounds. The reported endpoint is percent growth (GI% or GIPRCNT), where numbers from 0 - 100% represent growth inhibition, and numbers from -100% - 0 represent cell death. For example, a value of 40 represents 60% growth inhibition. […]
The panel holds about 83,000 compounds, 20% with a hit somewhere; the sample as a whole holds those more often. Calls of active or inactive are those of the source. The calls were made as follows: active = growth percent below 10; inactive = the rest.
Listed next: entries and their corresponding growth.

Solved entries (count: 5):
[
  {
    "Molecule": "O=C(NN1C(=O)/C(=C/C=C/c2ccc([N+](=O)[O-])o2)SC1=S)c1ccc(Cl)cc1",
    "Metric": "growth",
    "Measured Value": "-90.8% (active)"
  },
  {
    "Molecule": "COc1cc(CNC(=O)/C=C/c2ccc3c(c2)OCO3)ccc1OCc1cn(-c2cccc(C(F)(F)F)c2)nn1",
    "Metric": "growth",
    "Measured Value": "54% (inactive)"
  },
  {
    "Molecule": "O=C(/C=C/c1cccc(OCc2ccccc2)c1)c1nc2ccccc2[nH]1",
    "Metric": "growth",
    "Measured Value": "100% (inactive)"
  },
  {
    "Molecule": "NS(=O)(=O)c1ccc(-n2cc(-c3cccc(NC(=O)c4cc(Cl)cc(Cl)c4)c3)nn2)cc1",
    "Metric": "growth",
    "Measured Value": "96.7% (inactive)"
  },
  {
    "Molecule": "Cc1ccc([C@H]2C(C(=O)c3ccc(Cl)cc3)C3(N[C@@H]2c2ccccc2)C(=O)Nc2ccc(Cl)cc23)cc1 (stereo partly drawn)",
    "Metric": "growth",
    "Measured Value": "49.9% (inactive)"
  }
]

[in] Requested read-out: growth. Entry: C=C1CC[C@@H]2[C@]3(C)COC(c4cn[nH]c4-c4cccc(Br)c4)O[C@@H]3CC[C@@]2(C)[C@@H]1C/C=C1/C(=O)OCC1O (stereo partly drawn)
[out] -69.8% (active)

[in] Follow-up entry: `COc1ccc(C(=O)/C=C/c2cccc(Cl)c2Cl)cc1S(N)(=O)=O`
[out] 74.4% (inactive)

[in] Follow-up entry: `COc1cc2oc(-c3cccc(C(=O)Nc4ccc(Cl)cc4)c3)cc(=O)c2c(OCCNC(=O)[C@H](CO)NC(=O)OC(C)(C)C)c1OC`
[out] -1.01% (active)

* * *

Tested on: U251 CNS
Test Summary: NCI-60 one-dose screen, 48 h (100 = growth as untreated, 0 = no growth, -100 = all killed)
Conditions: 10 µM unless noted
About 83,000 compounds went through this panel and 20% of them were active in at least one assay; those are over-represented in the sample as a whole.
Metric: growth (%)
State just the number; it will be interpreted in %.

Solved entries (count: 8):
[
  {
    "Compound": "CC(C)CSc1nc(NCCc2c[nH]c3ccccc23)c(C#N)c(-c2ccc(F)cc2)n1",
    "System Under Test": "U251 CNS",
    "growth / %": 21.1
  },
  {
    "Compound": "O=C1NC(=O)c2c1c1c3cc(Br)ccc3[nH]c1c1oc3ccc(F)cc3c21",
    "System Under Test": "U251 CNS",
    "growth / %": -55.5
  },
  {
    "Compound": "Brc1ccc(N/N=C/c2c[nH]c3ccc(Br)cc23)nc1",
    "System Under Test": "U251 CNS",
    "growth / %": -63.5
  },
  {
    "Compound": "Cc1c(C(=O)NNC(=O)c2ccc(Cl)cc2)nnn1-c1ccc(Cl)cc1",
    "System Under Test": "U251 CNS",
    "growth / %": 99.8
  },
  {
    "Compound": "CN(C)CCOc1ccc(C(=O)C2[C@H](c3ccc(Cl)cc3)[C@@H](c3ccccc3)NC23C(=O)Nc2ccc(Br)cc23)cc1 (stereo partly drawn)",
    "System Under Test": "U251 CNS",
    "growth / %": -93.2
  },
  {
    "Compound": "CCCSc1nc(Nc2ccc(S(N)(=O)=O)cc2)c(C#N)c(-c2cc(OC)c(OC)c(OC)c2)n1",
    "System Under Test": "U251 CNS",
    "growth / %": 27.4
  },
  {
    "Compound": "Cc1c(C(=O)NNC(=O)Nc2ccc(Cl)cc2)nnn1-c1ccc(Br)cc1",
    "System Under Test": "U251 CNS",
    "growth / %": 104
  },
  {
    "Compound": "O=C(c1ccc(OCCN2CCOCC2)cc1)C1[C@H](c2ccc(Cl)cc2)[C@@H](c2ccccc2)NC12C(=O)Nc1ccc(Cl)cc12 (stereo partly drawn)",
    "System Under Test": "U251 CNS",
    "growth / %": 25.3
  }
]

[in] I'm curious: which growth was measured for CCOC(=O)C1=C(N)N(c2ccccc2)C2=C(C(=O)CC(C)(C)C2)C1c1cccc(Cl)c1Cl (stereo not drawn) tested on U251 CNS?
[out] 55.2

Where do the numbers come from? From PubChem BioAssay (NCI).
